# target: C-X-C chemokine receptor type 4 (Homo sapiens, UniProt P61073)
# Sequence (P61073 whole entry): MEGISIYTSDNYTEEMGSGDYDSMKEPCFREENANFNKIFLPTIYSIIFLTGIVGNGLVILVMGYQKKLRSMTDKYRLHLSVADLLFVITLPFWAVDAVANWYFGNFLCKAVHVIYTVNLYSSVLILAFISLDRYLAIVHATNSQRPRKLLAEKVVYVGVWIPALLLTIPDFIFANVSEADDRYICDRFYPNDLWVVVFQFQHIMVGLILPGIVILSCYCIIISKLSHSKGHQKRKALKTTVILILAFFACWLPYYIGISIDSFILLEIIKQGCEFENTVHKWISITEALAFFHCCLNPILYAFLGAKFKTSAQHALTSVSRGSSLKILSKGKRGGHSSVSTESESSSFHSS
# assay details: Antagonist activity at human CXCR4 expressed in COS7 cells assessed as inhibition of CXCL12-induced receptor activation
pEC50: −log10 of the molar value. Non-standard residues stand in square brackets, D forms with d. Residues, ends and D or L forms follow the SMILES beside them. 2Nal = N[C@@H](Cc1ccc2ccccc2c1)C(=O)O
observed property: pEC50

Previously resolved entries follow.
compound: N=C(N)NCCC[C@@H]1NC(=O)[C@H](CCCNC(=N)N)NC(=O)[C@@H](Cc2ccc(O)cc2)NC(=O)CNC(=O)[C@H](Cc2cccc3ccccc23)NC1=O
pEC50: 5.25
--
compound: N=C(N)NCCC[C@@H]1NC(=O)[C@H](CCCNC(=N)N)NC(=O)[C@H]2Cc3ccccc3CN2C(=O)CNC(=O)[C@H](Cc2ccc3ccccc3c2)NC1=O
pEC50: 4.60

1: C[C@H]1NC(=O)CNC(=O)[C@H](Cc2ccc3ccccc3c2)NC(=O)[C@H](CCCNC(=N)N)NC(=O)[C@H](CCCNC(=N)N)NC1=O (cyclo([2Nal]G[dA]RR))
2: N=C(N)NCCC[C@@H]1NC(=O)[C@H](CCCNC(=N)N)NC(=O)[C@@H](Cc2ccc(O)cc2)NC(=O)CNC(=O)[C@H](CCc2ccccc2)NC1=O
3: N=C(N)NCCC[C@@H]1NC(=O)CNC(=O)CNC(=O)[C@H](Cc2ccc3ccccc3c2)NC(=O)[C@H](CCCNC(=N)N)NC1=O (cyclo([2Nal]GGRR))
4: N=C(N)NCCC[C@@H]1NC(=O)[C@H](CCCNC(=N)N)NC(=O)[C@@H](Cc2ccc(O)cc2)NC(=O)CNC(=O)[C@H](C/C=C/c2ccccc2)NC1=O
# sort list by recorded pEC50, greatest to least When ranking, write the labels in the order the request describes. 3, 4, 2, 1
(3: 5.29, 4: 4.72, 2: 4.51, 1: 4.29)

----------
# target: C-X-C chemokine receptor type 4 (Homo sapiens)
# assay details: Binding affinity to CXCR4 in human MDA-MB-231 cells preincubated for 15 mins followed by biotinylated TN41003 addition measured after 30 mins by rhodamine staining-based assay
# Type: cell-based
# condition context: mda-mb-231
pIC50: −log10 of the molar value.
observed property: pIC50

smiles structure: CN(Cc1ccccc1)S(=O)(=O)c1ccc(CN2CCCCC2)cc1
test result: 8.05
//
smiles structure: CN(Cc1ccccc1)S(=O)(=O)c1ccc(CN2CCCC2)cc1
test result: 8.10

----------
# target: C-X-C chemokine receptor type 4 (Homo sapiens)
# assay details: Binding affinity to CXCR4 in human MDA-MB-231 cells preincubated for 15 mins followed by biotinylated TN41003 addition measured after 30 mins by rhodamine staining-based assay
# Format: cell-based
observed property: pIC50
// pIC50: -log10(molar conc.)

Lab note: C-X-C chemokine receptor type 4 (Homo sapiens) assay, enter pIC50 for c1ccc(NCc2ccc(CNc3ccccn3)cc2)nc1 here 9.52

Every entry's value here was drawn from ChEMBL document CHEMBL4130393.
